- System: guinea-pigs
- protocol_description: Tracheal potential difference (TPD) after intra-tracheal dosing in guinea pigs
- Type: in vivo
- setup_conditions: Table 1; guinea pig, i.t. instillation, dose 30 ug/kg, 3 hr after dosing; mean
# cutoff -7 mV applies to TPD (mV); >= gives met, < gives not met

The examples below pair each entry with its known result.
N=C(NCCCCc1ccc(OCCOCCNC(=O)C(O)C(O)C(=O)NCCOCCOc2ccc(CCCCNC(=N)NC(=O)c3nc(Cl)c(N)nc3N)cc2)cc1)NC(=O)c1nc(Cl)c(N)nc1N (stereo not drawn) [Compound 16]    met
N=C(N)Nc1ccc(C(=O)Oc2ccc(CC(=O)OCC(=O)NCCOCCOCCNC(=O)COC(=O)Cc3ccc(OC(=O)c4ccc(NC(=N)N)cc4)cc3)cc2)cc1 [Compound 53]    not met
COC(=O)C(CCCC(NC(=O)OCCOCCOc1ccc(CCCCNC(=N)NC(=O)c2nc(Cl)c(N)nc2N)cc1)C(=O)OC)NC(=O)OCCOCCOc1ccc(CCCCNC(=N)NC(=O)c2nc(Cl)c(N)nc2N)cc1 (stereo not drawn) [Compound 46]    not met

Req: Determine whether measured TPD (mV) meets or exceeds -7 mV for N=C(NCCCCc1ccc(OCCOCCNC(=O)NCCCCNC(=O)NCCOCCOc2ccc(CCCCNC(=N)NC(=O)c3nc(Cl)c(N)nc3N)cc2)cc1)NC(=O)c1nc(Cl)c(N)nc1N [Compound 37]
Resp: not met

Req: Determine whether measured TPD (mV) meets or exceeds -7 mV for N=C(NCCCCc1ccc(OCCOCCOCCOCCOCCO)cc1)NC(=O)c1nc(Cl)c(N)nc1N [Compound 66]
Resp: not met

Req: Determine whether measured TPD (mV) meets or exceeds -7 mV for N=C(NCCCCc1ccc(OCCOCCOCCNC(=O)C(=O)NCCOCCOCCOc2ccc(CCCCNC(=N)NC(=O)c3nc(Cl)c(N)nc3N)cc2)cc1)NC(=O)c1nc(Cl)c(N)nc1N [Compound 69]
Resp: met
